Test system: PPARg:RXRa 90nM:30nM, anti-RXR (NR concentration 90 nM, RXRa partner concentration 30 nM)
Assay: PBM binding z-score (relative to random genomic background probes); higher = stronger binding; sequences stand for … in GC…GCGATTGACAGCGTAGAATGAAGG
The recorded PBM binding z-score of each item maps onto one of these classes: low interval: < 2; middle interval: ≥ 2 and < 4; high interval: ≥ 4

| sequence_input | discrete_label |
| --- | --- |
| CCTTCTGGGCCAAGGTCATTGATCAGTCAAAGCA | middle interval |
| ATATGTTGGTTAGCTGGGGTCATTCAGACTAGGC | low interval |
| CGTCCAAGGTCATAGGTCAGTGAAGAGATGACGG | high interval |
| TCATATAGGGAAAAGGTGAAAGTCGGTGTGGTAA | high interval |
| CGAACTAGGCCAAGGACAGTGAATCTCCGCACGC | low interval |
| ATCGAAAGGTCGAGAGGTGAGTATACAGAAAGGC | middle interval |
| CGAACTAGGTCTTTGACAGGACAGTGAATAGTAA | low interval |
| TGGAGTAGGTTACCAATGGGGCATTCAGCTTTCT | low interval |
| ATATGTAGGTGACATCCGGGTCATTCAGGCTATG | high interval |
| CCTGCTAGGCCATGGTCAGCTAATCTACAGTATG | low interval |
| ATCGAAAGGTCGACGAGGTGATTATACACCGTTT | middle interval |
| CCTAGTTGGTCAGGAGGTCACCCACCGGATATGA | middle interval |

----------
Tested on: PPARg:RXRa 90nM:30nM, anti-RXR (NR concentration 90 nM, RXRa partner concentration 30 nM)
Test: PBM binding z-score (relative to random genomic background probes); higher = stronger binding; sequences stand for … in GC…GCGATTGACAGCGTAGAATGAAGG
readout_type: PBM binding z-score

| sequence_input | result |
| --- | --- |
| CATAGTTGGTCAGGAGGTCACACACCGGATATGA | 3.1 |
| CCTCGGAGAACAGAAGGTCAGAGCTGTCCGCTTT | 0.369 |
| TAGCCTACGTCATTGGGCCAGTATAGTACGCATC | -0.205 |
| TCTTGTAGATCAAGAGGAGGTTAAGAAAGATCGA | 1.6 |
| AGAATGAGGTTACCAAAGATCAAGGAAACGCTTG | 2.26 |
| AGAACGAGGGCACGCTGACTTGATAGCAGAGTAG | 1.18 |

----------
Entries and their PBM binding z-score values follow.
System: PPARg:RXRa IVT, anti-PPARg (NR concentration 270 nM, RXRa partner concentration 90 nM)
Experiment: PBM binding z-score (relative to random genomic background probes); higher = stronger binding; sequences stand for … in GC…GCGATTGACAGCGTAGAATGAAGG

| sequence_input | PBM binding z-score |
| --- | --- |
| ATCTCTAGGTAAGACTCAGTTCAATGAAGAACGC | 1.16 |
| CGTCCAAGGTCATAGGAGATCAGTGAAGACAGAT | 3.43 |
| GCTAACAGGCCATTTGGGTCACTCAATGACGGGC | 1.82 |
| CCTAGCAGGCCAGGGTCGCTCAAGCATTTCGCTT | -0.535 |
| CCTTACGGGTTAAGGTTATAGCACGGGTGGTACG | 0.867 |
| TCTTGGAGATCAAAGGTTAAGAAAGCCGAAGCCT | 2.18 |
| GCTGCAAGGTCAGGTTGGTCAGCTAACGGGTACG | 1.7 |
| ACTTACGGGTCAATGAGGTTATAGCACGCGTATA | 3.66 |
| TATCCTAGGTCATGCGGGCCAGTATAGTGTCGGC | 4.97 |
| ACAGACAGGTGTTGAAGGTAACTCAGGCTATCAT | -0.388 |
| AGAATGAGGTTATTAAGATAAGGGAATTGCGGTC | 2.31 |
| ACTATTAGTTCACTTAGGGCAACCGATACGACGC | 0.672 |

----------
System: FXR:RXRa (NR concentration 270 nM, RXRa partner concentration 90 nM)
Assay: PBM binding z-score (relative to random genomic background probes); higher = stronger binding; sequences stand for … in GC…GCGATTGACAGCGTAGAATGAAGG
Recorded measurements of PBM binding z-score, one per entry
readout_type: PBM binding z-score

| sequence_input | result |
| --- | --- |
| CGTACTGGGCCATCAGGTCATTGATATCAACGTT | 1.44 |
| AATACAGGGTCACTAGGCCAAAGTAGGTACGAAT | 6.51 |
| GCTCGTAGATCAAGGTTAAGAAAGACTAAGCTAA | -0.496 |
| TCTGCTAGGTCAGTTGGTCAGATAACGAGCTGCC | 1.05 |
| ATCTCTAGGTAACATGTTCAGTGAAAGAGAGGAC | 0.248 |
| CCTTACGGGTCACACCAGGTTATAGCATCGGAGT | 5.86 |
| TCTAGTTGGTCAAAGGTAACACACTCGAAATGCG | 1.27 |
| TTACCAAGGTGAAGCTCGTTGATCCCTCTGTAGA | 0.0851 |
| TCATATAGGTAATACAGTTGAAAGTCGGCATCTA | 1.56 |
| CCGACTGGGGCAAGGTTACAATAACGCACAGCCA | 0.137 |
| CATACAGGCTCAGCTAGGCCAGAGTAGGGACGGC | -0.48 |
| CCGACTGGGGCATCAGGTTACCATAAGCCAGCCC | -0.188 |
| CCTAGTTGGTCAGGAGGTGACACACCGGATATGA | 0.076 |
| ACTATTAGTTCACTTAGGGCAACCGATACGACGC | 1.66 |
| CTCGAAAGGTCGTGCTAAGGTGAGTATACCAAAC | 5.5 |
| ACTTGCGGGTCAACGAGGTTATAGCACGCGTATA | 6.24 |
| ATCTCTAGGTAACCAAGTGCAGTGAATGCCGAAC | -0.0336 |
| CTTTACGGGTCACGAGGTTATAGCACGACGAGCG | 7.21 |
| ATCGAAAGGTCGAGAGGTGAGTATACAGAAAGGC | 4.46 |
| AGTCAACGTTCAGGACGAGGTAACGTAAAGCACG | -0.0969 |
| CATACAGGGTCAGCTAGGTCAGAGTAGGGACGGC | 5.34 |
| CCAGACAGGTGAAAGGTAACTCAATCTGGTACGC | 0.545 |
| GGAACGAGGGTATTCGAGTTGATAGCATGGCGAT | 0.27 |
| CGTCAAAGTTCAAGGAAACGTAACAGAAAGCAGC | 5.45 |
| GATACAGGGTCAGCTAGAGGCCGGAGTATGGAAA | 4.48 |
| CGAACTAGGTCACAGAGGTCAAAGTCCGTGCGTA | 7.51 |
| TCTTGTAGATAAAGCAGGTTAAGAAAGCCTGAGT | 0.606 |
| ATTTCTAGGTAAAGATAGTTCAGTGAATGCAAAT | 0.355 |
| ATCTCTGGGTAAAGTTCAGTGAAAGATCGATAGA | 1.19 |
| CGTCAAAGTTCAAGGTAACTTAACAGAAAGCAGC | 6.07 |
| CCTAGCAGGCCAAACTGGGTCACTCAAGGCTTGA | 0.705 |
| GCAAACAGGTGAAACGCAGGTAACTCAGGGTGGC | -0.182 |
| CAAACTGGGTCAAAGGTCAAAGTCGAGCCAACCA | 7.83 |
| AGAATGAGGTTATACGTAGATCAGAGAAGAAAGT | 2.4 |
| TGGCCTAGGTCAGATCGGGCCAGTATACGCTATA | 2.31 |
| TCTGCTAGGTCAACGATGGTCCGCTAATCTGCTA | 2.99 |
| TTATATAGGTAAATGCTAGGTGAAAGTCCGATCT | 0.733 |
| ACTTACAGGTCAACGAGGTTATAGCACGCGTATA | 6.79 |
| CAGCCTAGGACAGGGCCAGTATAGGAGGAACGTT | -0.452 |
| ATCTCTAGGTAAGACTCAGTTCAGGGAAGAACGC | 0.579 |
| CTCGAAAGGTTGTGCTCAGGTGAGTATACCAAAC | 0.895 |
| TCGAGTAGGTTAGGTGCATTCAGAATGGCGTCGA | -0.264 |
| CGTCCAAGGTCAAAGGTCAGTGCAGAGATGACGG | 8.41 |
| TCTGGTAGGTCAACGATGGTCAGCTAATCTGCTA | 4.45 |
| AGAACGAGGGTACGCTGAGTTGATAGCAGAGTAG | -0.315 |
| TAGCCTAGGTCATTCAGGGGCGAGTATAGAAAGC | 5.04 |
| TCTTGTAGATCAACAGGAGGTTAAGTAAGATCGA | 0.451 |
| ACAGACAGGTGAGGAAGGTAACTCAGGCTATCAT | 0.118 |
| ATCTCTACGTAACAAGTTCAGTGAAAGAGAGGAC | 0.253 |
| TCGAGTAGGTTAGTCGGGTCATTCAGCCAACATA | 1.62 |
| AGAATGAGGTTACCAACGATCAGGGAAACGCTTG | 1.58 |
